# tested_target: UniProt Q9HBW0
# Sequence (Q9HBW0 whole entry): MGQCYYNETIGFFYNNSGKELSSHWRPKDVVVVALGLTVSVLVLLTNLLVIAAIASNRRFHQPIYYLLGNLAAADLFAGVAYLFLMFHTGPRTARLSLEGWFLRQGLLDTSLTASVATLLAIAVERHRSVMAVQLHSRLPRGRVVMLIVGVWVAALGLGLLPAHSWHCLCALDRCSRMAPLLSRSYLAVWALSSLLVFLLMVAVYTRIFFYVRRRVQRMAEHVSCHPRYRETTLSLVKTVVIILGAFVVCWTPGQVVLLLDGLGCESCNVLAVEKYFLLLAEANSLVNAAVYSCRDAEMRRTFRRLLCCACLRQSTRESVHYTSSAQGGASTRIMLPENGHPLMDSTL
# assay_summary: FLIPR calcium flux, CHO cells
quantity_measured: IC50

Observed IC50 on UniProt Q9HBW0, entry COc1ccc(C(=O)NC2(C(=O)O)Cc3ccccc3C2)cc1OCCc1cccc(C)c1 [SAR100842] , equals > 10 µM

====

# tested_target: LPA3 receptor (Homo sapiens)
# Sequence (Q9UBY5 whole entry): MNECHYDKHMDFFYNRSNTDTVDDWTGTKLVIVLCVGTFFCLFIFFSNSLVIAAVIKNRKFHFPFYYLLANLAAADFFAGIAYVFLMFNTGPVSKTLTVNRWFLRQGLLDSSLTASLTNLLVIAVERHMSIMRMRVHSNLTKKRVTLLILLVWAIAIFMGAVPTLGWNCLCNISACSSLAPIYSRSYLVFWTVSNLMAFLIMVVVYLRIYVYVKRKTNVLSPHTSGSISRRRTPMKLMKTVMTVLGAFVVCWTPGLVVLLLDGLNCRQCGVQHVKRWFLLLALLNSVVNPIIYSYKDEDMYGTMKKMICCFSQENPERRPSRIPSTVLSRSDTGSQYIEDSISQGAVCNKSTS
# assay_summary: FLIPR calcium flux, CHO cells
quantity_measured: IC50

Input `COc1ccc(C(=O)NC2(C(=O)O)Cc3ccccc3C2)cc1OCCc1cccc(C)c1` . Output IC50: > 10 µM

====

# tested_target: LPA1 receptor (native, systemic sclerosis dermal fibroblasts) (Homo sapiens, UniProt Q92633)
# Sequence (Q92633 whole entry): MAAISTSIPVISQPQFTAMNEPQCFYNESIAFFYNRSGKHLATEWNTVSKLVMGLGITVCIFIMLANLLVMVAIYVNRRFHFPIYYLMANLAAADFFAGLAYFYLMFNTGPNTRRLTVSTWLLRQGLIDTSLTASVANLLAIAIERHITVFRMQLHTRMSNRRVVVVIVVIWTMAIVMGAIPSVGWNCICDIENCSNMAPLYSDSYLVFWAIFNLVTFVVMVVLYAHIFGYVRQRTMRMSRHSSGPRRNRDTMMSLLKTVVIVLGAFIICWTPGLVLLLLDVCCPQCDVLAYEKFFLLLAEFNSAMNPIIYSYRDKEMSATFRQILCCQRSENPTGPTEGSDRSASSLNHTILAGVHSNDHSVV
# assay_summary: FLIPR calcium flux, primary SSc dermal fibroblasts
# assay_setup: agonist; 0.3% fatty acid-free human serum albumin; Gi/Go coupled
quantity_measured: pEC50
Please report pEC50 as the negative decimal logarithm of the molar concentration, giving only the number.

Input `CCCCCCCC/C=C\CCCCCCCC(=O)OC[C@@H](O)COP(=O)(O)O` . Output pEC50: 6.82

====

# tested_target: LPA5 receptor (Homo sapiens, UniProt Q9H1C0)
# Sequence (Q9H1C0 whole entry): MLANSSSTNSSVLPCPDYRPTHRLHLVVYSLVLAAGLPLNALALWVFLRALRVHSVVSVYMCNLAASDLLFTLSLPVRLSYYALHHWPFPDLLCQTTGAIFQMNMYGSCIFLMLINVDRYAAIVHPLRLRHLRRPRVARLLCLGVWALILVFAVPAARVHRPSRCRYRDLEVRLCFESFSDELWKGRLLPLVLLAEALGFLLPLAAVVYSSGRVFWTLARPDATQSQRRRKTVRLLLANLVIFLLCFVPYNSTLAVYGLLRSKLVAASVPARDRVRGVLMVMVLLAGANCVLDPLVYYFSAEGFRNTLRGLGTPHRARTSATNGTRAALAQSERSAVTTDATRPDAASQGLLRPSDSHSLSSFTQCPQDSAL
# assay_summary: FLIPR calcium flux, CHO cells
quantity_measured: IC50

Input `COc1ccc(C(=O)NC2(C(=O)O)Cc3ccccc3C2)cc1OCCc1cccc(C)c1` . Output IC50: > 10 µM
